Record: IC50 reported on modified SphK1 (Homo sapiens, UniProt Q9NYA1).
Sequence (Q9NYA1 whole entry): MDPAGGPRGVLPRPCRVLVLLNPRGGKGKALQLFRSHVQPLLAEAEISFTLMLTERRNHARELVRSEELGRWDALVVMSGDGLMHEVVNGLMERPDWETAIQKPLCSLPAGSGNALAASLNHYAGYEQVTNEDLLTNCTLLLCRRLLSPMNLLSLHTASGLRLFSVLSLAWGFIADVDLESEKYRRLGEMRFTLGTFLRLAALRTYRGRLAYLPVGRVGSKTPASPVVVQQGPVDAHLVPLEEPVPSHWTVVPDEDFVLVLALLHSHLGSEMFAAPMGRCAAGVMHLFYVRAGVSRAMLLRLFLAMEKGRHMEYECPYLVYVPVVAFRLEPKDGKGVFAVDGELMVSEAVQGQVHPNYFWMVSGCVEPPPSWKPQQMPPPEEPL

// worked examples, IC50 included
compound	recorded_result
CC1(C)CCC(C)(C)c2cc(-c3csc(N4CCC(C5CCNCC5)CC4)n3)ccc21	100 to 1000 nM
CC1(C)CCC(C)(C)c2cc(-c3csc(N4CCC(CCCO)CC4)n3)ccc21	> 1000 nM
CC1(C)CCC(C)(C)c2cc(-c3csc(N4CCC(N(Cc5cc[nH]n5)Cc5cc[nH]n5)CC4)n3)ccc21	100 to 1000 nM
CC1(C)CCCc2cc(-c3csc(N4CCNCC4)n3)ccc21	100 to 1000 nM
CC1(C)CCC(C)(C)c2cc(-c3csc(N4CCC(N)CC4)n3)ccc21	100 to 1000 nM

Give IC50 for each of the items listed below.
1. CC1(C)CCCc2cc(-c3csc(N4CCC(N(CCO)CCO)CC4)n3)ccc21
2. CC1(C)CCC(C)(C)c2cc(-c3csc(N4CCC(NC[C@@H](O)CO)CC4)n3)ccc21
3. CC1(C)CCC(C)(C)c2cc(-c3csc(N4CCNCC4)n3)ccc21

["100 to 1000 nM", "100 to 1000 nM", "100 to 1000 nM"]

Give IC50 for each of the items listed below.
1. CC1(C)CCC(C)(C)c2cc(-c3csc(N4CCC(CCN5CCCC5)CC4)n3)ccc21
2. CC1(C)CCC(C)(C)c2cc(-c3csc(N4CCCC(C(=O)NCCCO)C4)n3)ccc21 (stereo not shown)

1. 100 to 1000 nM
2. > 1000 nM

###

pIC50: −log10 of the molar value.
Record: pIC50 reported on modified SphK1 (Homo sapiens).

compound	assay_target	recorded_result
CC1(C)CCC(C)(C)c2cc(-c3csc(N4CCN(CCCCCO)CC4)n3)ccc21	modified SphK1 (Homo sapiens)	6.00 to 7.00

Give pIC50 for each of the items listed below.
1. CC1(C)CCCc2cc(-c3csc(N4CCN(CCCCCO)CC4)n3)ccc21
2. CC1(C)CCC(C)(C)c2cc(-c3csc(C4CCCN(CCCCO)C4)n3)ccc21 (stereo not shown)
3. CC1(C)CCC(C)(C)c2cc(-c3csc(N4CCN(CC(O)CO)CC4)n3)ccc21 (stereo not shown)
4. CC1(C)CCC(C)(C)c2cc(-c3csc(N4CC[C@@H](NCCO)C4)n3)ccc21

1: < 6.00; 2: < 6.00; 3: 6.00 to 7.00; 4: < 6.00

Give pIC50 for each of the items listed below.
1. CC1(C)CCC(C)(C)c2cc(-c3csc(N4CCC(N)C4)n3)ccc21 (stereo not shown)
2. CC1(C)CCC(C)(C)c2cc(-c3csc(N4CCC(CCN)CC4)n3)ccc21
3. CC1(C)CCC(C)(C)c2cc(-c3csc(N4CCC(NCCO)CC4)n3)ccc21
4. CC1(C)CCC(C)(C)c2cc(-c3csc(N4CCC(N5CCC(N)C5)CC4)n3)ccc21 (stereo not shown)
5. CC1(C)CCC(C)(C)c2cc(-c3csc(N4CCC(C(=O)NCCO)CC4)n3)ccc21

1. 6.00 to 7.00
2. 6.00 to 7.00
3. > 7.00
4. 6.00 to 7.00
5. < 6.00
